Tested on: T24
ASSAY TEXT: Growth inhibition, modified MTT assay, T24
Type: cell-based
MEASUREMENT CONDITIONS: Homo sapiens, T-24, mean of 3 independent tests
QUANTITY NAME: IC50 (µM)

{"COMPOUND": "CC(Cc1ccc(Oc2cc(N3CCN(Cc4cccc5ccccc45)CC3)nc(N)n2)cc1)(Oc1ccccc1)C(=O)O (stereo not shown) [Compound 6]", "IC50 [µM]": 36.3}
{"COMPOUND": "CC(Cc1ccc(Oc2cc(N3CCN(Cc4ccccc4)CC3)nc(N)n2)cc1)(Oc1ccc(C(F)(F)F)cc1)C(=O)O (stereo not shown) [Compound 32]", "IC50 [µM]": 37.7}
{"COMPOUND": "CC(Cc1ccc(Oc2cc(N3CCN(Cc4cccc(C#N)c4)CC3)nc(N)n2)cc1)(Oc1ccccc1)C(=O)O (stereo not shown) [Compound 26]", "IC50 [µM]": 38.8}
